Taken from patent US20230117034A1.

DC50 values by entry
Molecular target: CDK12 protein level in CAL-120 breast cancer cells (Homo sapiens, UniProt Q9NYV4)
Construct: endogenous in cells; host or cells: CAL-120 human breast cancer cells (DSMZ ACC 459)
Assay: CDK12 protein level: Protein Simple (CDK12, CAL-120)
Type: cell-based
Conditions: CAL-120 cells, 18 h with compound, CDK12/HSP90 peak area ratio vs vehicle, median, read-out: CDK12 protein level in CAL-120 breast ca cells, DC50-[mol/l] (median)

{"columns": ["compound", "inequality_operator", "DC50, µM"],
 "data": [
  ["NCCc1cccc2[nH]c(CNc3nc(N4CCOCC4)nc4c(Br)cnn34)nc12", "=", 0.0588],
  ["OC1CCCN(c2nc(NCc3nc4ccccc4[nH]3)n3ncc(Br)c3n2)C1 (racemic)", "=", 0.0581],
  ["CC(C)c1cnn2c(NCc3nc4ccccc4[nH]3)nc(N3CCOCC3)nc12", "=", 0.0574],
  ["Fc1ccc(-c2nnc(CNc3nc(N4CCOCC4)nc4c(Br)cnn34)[nH]2)cc1", "=", 0.00915],
  ["CC1CN(C)CCN1c1nc(NCc2nc3ccccc3[nH]2)n2ncc(Br)c2n1 (single isomer, unassigned; enantiomer 1)", "<", 0.001],
  ["Cc1ccnc2[nH]c(CNc3nc(N4CCOCC4)nc4c(Br)cnn34)nc12", "=", 0.0026],
  ["Brc1cnn2c(NCc3nc4ccccc4[nH]3)nc(N3CCCC3)nc12", "=", 0.0589],
  ["Brc1cnn2c(NCc3nc4ccccc4[nH]3)nc(N3CC4(COC4)C3)nc12", "<", 0.03],
  ["Brc1cnn2c(NCc3nc4ccccc4[nH]3)nc(N3CCCCC3)nc12", "<", 0.03],
  ["CC(C)c1cnn2c(NCc3ncc(-c4ccccc4)[nH]3)nc(N3CCN(C)CC3)nc12", "=", 0.0109],
  ["COC1CCN(c2nc(NCc3nc4ccccc4[nH]3)n3ncc(Br)c3n2)CC1", "=", 0.128],
  ["Brc1cnn2c(NCc3nnc(-c4ccccc4)[nH]3)nc(N3CCCC3)nc12", "=", 0.0871],
  ["COC(=O)C1CCN(c2nc(NCc3nc4ccccc4[nH]3)n3ncc(Br)c3n2)CC1", "=", 0.0418],
  ["CC(C)c1cnn2c(NCc3nc4ccccc4[nH]3)nc(Nc3ccncc3)nc12", "=", 0.00938],
  ["Brc1cnn2c(NCc3nc4c([nH]3)CCCC4)nc(N3CCOCC3)nc12", ">", 0.1],
  ["Cc1ccnc2[nH]c(CNc3nc(N4CCOCC4)nc4c(C(C)C)cnn34)nc12", "=", 0.00144],
  ["Clc1cnn2c(NCc3nc4ccccc4[nH]3)nc(N3CCOCC3)nc12", "=", 0.00298],
  ["Brc1cnn2c(NCc3nc4ccccc4[nH]3)nc(N3CCOCC3)nc12", "=", 0.000476],
  ["Fc1ccc2[nH]c(CNc3nc(N4CCNCC4)nc4c(C5CC5)cnn34)nc2c1", "=", 0.000307],
  ["Fc1ccc(-c2cnc(CNc3nc(N4CCOCC4)nc4c(Br)cnn34)[nH]2)cc1", "=", 0.0437],
  ["Brc1cnn2c(NCc3nnc(-c4ccccn4)[nH]3)nc(N3CCOCC3)nc12", "<", 0.03],
  ["CN1CCN(c2nc(NCc3nc4cc(F)ccc4[nH]3)n3ncc(C4CC4)c3n2)CC1", "=", 0.00108],
  ["Brc1cnn2c(NCc3ncc(-c4ccccc4)[nH]3)nc(N3CCOCC3)nc12", "<", 0.001],
  ["COc1cccc(-c2nnc(CNc3nc(N4CCOCC4)nc4c(Br)cnn34)[nH]2)c1", "=", 0.0396],
  ["FC(F)(F)c1cnn2c(NCc3nc4ccccc4[nH]3)nc(N3CCOCC3)nc12", "=", 0.00729],
  ["Cc1[nH]c(CNc2nc(N3CCOCC3)nc3c(Br)cnn23)nc1-c1ccccc1", "=", 0.0446],
  ["Brc1cnn2c(NCc3nnc(-c4ccccc4)[nH]3)nc(N3CCOCC3)nc12", "=", 0.00933],
  ["C[C@H]1CN(c2nc(NCc3nc4ccccc4[nH]3)n3ncc(Br)c3n2)CCN1", "=", 0.00104],
  ["Fc1ccc2[nH]c(CNc3nc(N4CCOCC4)nc4c(Br)cnn34)nc2c1F", "<", 0.001],
  ["Brc1cnn2c(NCc3nc4ccncc4[nH]3)nc(N3CCOCC3)nc12", "=", 0.118]
]}

----------
Biological target: CDK12 (nuclear staining in CAL-120 cells) (Homo sapiens, UniProt Q9NYV4)
Construct: endogenous in cells; host or cells: CAL-120 human breast cancer cells (DSMZ ACC 459)
Sequence (Q9NYV4 whole entry): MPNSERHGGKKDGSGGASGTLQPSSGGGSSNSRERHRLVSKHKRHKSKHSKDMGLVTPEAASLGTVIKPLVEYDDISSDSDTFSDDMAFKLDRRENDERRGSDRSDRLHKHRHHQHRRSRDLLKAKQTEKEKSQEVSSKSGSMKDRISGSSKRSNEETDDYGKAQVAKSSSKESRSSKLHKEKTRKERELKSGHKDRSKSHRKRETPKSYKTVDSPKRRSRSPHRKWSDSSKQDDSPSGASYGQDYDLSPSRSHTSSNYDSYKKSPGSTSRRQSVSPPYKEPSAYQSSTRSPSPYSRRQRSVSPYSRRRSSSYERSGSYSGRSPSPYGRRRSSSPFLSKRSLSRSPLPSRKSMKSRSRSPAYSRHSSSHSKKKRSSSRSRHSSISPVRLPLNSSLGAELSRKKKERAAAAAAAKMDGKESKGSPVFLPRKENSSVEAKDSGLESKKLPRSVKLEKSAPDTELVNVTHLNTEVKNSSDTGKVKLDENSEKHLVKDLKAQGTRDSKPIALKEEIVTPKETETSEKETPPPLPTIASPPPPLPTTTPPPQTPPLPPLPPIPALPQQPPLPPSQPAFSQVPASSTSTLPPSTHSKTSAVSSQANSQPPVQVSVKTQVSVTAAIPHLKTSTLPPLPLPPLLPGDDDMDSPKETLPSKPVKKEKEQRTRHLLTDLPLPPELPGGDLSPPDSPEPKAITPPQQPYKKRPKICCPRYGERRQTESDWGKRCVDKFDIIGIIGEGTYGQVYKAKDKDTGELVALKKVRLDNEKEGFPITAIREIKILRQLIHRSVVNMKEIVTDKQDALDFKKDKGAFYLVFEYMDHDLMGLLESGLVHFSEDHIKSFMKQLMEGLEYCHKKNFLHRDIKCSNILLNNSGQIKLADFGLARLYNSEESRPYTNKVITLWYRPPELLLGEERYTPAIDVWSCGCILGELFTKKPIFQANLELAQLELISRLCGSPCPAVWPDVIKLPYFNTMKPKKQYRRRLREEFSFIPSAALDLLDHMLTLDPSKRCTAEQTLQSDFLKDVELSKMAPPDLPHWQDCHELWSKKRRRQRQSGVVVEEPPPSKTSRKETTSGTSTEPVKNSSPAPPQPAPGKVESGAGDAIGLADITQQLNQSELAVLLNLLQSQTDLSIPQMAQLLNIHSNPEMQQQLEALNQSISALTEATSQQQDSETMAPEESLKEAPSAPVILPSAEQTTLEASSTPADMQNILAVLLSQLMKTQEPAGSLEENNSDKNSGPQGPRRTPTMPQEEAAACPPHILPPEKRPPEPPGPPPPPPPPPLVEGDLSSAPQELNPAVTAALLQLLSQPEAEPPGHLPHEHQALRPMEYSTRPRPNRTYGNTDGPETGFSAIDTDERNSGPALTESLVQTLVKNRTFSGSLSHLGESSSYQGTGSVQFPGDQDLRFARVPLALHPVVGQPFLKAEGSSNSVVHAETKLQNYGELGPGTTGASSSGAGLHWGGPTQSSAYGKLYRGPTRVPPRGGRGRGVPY
Sequence (O75909 whole entry partner): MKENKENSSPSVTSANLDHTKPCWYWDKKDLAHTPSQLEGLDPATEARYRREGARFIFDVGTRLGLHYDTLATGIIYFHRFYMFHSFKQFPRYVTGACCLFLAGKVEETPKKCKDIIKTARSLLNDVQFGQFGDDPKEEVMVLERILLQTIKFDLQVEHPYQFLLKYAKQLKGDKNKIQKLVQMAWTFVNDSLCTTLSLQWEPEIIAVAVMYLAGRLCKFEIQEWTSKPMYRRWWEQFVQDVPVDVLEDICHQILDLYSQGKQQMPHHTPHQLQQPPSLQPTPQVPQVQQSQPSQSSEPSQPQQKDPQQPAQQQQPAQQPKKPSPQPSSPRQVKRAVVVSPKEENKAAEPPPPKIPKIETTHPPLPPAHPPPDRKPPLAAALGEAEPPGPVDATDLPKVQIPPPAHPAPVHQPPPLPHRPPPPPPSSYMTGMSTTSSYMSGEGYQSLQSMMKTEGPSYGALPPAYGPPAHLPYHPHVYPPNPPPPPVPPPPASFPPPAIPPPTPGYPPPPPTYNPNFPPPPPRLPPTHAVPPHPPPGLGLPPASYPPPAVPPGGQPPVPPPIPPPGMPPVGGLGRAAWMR
Test: CDK12 nuclear protein level: immunofluorescence/high content analysis (CAL-120)
Type: cell-based
Conditions: CAL-120 cells, 24 h, immunofluorescence; 50% reduction of nuclear CDK12 staining intensity; median; read-out: CDK12 degradation IF, DC50- [mol/l] (median)

{"columns": ["compound", "DC50"],
 "data": [
  ["Cc1ccnc2[nH]c(CNc3nc(N4CCOCC4)nc4c(Br)cnn34)nc12", "2.57 nM"],
  ["CO[C@H]1CCN(c2nc(NCc3nc4ccccc4[nH]3)n3ncc(Br)c3n2)C1", "48.8 nM"],
  ["Fc1ccc2[nH]c(CNc3nc(N4CCOCC4)nc4c(C(F)(F)F)cnn34)nc2c1", "1.44 nM"],
  ["Brc1cnn2c(NCc3nc4ccccc4[nH]3)nc(N3CCOCC3C3CC3)nc12 (centres unmarked)", "3.77 nM"],
  ["Cc1ccnc2[nH]c(CNc3nc(N4CCN(C)CC4)nc4c(C(C)C)cnn34)nc12", "7.21 nM"],
  ["CC1(C)CN(c2nc(NCc3nc4ccccc4[nH]3)n3ncc(Br)c3n2)CCO1", "26.1 nM"],
  ["CN1CCN(c2nc(NCc3nc4cc(Cl)c(Cl)cc4[nH]3)n3ncc(-c4cnn(C)c4)c3n2)CC1", "80.6 nM"],
  ["COc1cccc(-c2nnc(CNc3nc(N4CCOCC4)nc4c(Br)cnn34)[nH]2)c1", "12.5 nM"]
]}

----------
Biological target: CDK12/CycK (Homo sapiens, UniProt Q9NYV4)
Sequence (Q9NYV4 with tags, fused parts or gaps): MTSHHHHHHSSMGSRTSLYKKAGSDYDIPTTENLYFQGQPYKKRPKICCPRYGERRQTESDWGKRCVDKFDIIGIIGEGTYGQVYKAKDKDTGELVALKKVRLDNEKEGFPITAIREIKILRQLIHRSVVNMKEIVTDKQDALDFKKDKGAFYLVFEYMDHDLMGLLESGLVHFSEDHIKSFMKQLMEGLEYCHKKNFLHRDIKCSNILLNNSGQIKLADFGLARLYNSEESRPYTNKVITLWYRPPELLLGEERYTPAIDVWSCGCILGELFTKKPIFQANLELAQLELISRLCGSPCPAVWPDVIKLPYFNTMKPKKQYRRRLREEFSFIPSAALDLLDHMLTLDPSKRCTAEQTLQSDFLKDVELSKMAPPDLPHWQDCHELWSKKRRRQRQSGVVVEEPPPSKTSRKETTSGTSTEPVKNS
Sequence (O75909 1-300 partner limits assumed): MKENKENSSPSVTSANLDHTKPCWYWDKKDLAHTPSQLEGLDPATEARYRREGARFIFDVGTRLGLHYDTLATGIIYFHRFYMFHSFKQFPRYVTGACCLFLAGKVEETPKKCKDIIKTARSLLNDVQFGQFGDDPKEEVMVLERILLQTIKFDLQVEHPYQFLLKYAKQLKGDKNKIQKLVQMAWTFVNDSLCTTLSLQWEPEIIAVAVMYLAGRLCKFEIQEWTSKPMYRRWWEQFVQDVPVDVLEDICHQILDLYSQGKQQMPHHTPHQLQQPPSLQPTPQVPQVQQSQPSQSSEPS
Experiment: CDK12/CycK high ATP kinase assay (TR-FRET, 2 mM ATP)
Settings: 2 mM ATP (high ATP); median; read-out: CDK12/CyclinK, 2 mM ATP (high ATP), IC50-[mol/l] (median)

{"columns": ["smiles_input", "unit_name", "inequality_operator", "IC50"],
 "data": [
  ["Fc1ccc(-c2cnn3c(NCc4nc5ccccc5[nH]4)nc(N4CCOCC4)nc23)cc1", "µM", ">", 9.99],
  ["Brc1cnn2c(NCc3nc4ccccc4[nH]3)nc(N3C[C@H]4CCCN[C@H]4C3)nc12", "µM", "=", 14.8],
  ["Clc1cc2nc(CNc3nc(N4CC5CCC(C4)N5)nc4c(Br)cnn34)[nH]c2cc1Cl", "µM", "=", 2.03],
  ["CC[C@@H](CO)Nc1nc(NCc2nc3ccccc3[nH]2)n2ncc(Br)c2n1", "µM", "=", 2.93]
]}

----------
Biological target: CDK9/CycT1 (Homo sapiens, UniProt P50750)
Construct: Recombinant full-length His-tagged human CDK9 and CycT1; purchased Life Technologies PV4131; host or cells: insect cells
Sequence (P50750 whole entry): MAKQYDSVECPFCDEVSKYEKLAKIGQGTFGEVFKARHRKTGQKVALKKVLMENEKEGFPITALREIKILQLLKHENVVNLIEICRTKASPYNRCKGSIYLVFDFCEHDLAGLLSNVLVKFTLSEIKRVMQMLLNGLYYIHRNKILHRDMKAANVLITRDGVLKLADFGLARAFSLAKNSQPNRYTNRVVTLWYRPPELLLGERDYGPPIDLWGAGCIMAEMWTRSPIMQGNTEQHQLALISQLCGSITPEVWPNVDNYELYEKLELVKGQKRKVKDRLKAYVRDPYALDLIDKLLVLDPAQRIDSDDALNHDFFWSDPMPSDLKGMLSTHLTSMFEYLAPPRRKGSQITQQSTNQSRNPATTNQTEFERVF
Sequence (O60563 whole entry partner): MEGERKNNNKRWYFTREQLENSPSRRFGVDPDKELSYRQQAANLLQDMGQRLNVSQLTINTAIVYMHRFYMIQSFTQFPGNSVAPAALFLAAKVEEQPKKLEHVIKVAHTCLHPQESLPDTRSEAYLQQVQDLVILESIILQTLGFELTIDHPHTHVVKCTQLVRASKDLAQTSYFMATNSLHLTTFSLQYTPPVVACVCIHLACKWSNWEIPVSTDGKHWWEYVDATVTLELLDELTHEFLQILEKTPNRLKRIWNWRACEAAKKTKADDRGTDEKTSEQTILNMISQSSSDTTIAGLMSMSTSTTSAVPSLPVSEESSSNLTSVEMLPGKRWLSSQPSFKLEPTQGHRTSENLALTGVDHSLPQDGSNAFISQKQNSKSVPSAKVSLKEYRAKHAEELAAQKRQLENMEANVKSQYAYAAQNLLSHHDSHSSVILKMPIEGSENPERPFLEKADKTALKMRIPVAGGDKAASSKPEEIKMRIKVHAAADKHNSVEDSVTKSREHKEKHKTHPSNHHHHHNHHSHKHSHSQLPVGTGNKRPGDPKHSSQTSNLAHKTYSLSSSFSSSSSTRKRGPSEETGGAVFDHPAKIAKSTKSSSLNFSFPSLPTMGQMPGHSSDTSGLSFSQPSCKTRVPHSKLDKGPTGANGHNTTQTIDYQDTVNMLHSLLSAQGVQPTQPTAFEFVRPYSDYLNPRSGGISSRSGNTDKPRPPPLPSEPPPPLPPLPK
Assay: CDK9/CycT1 high ATP kinase assay (TR-FRET, 2 mM ATP)
Format: biochemical
Details: 2 mM ATP (high ATP); median; read-out: CDK9/CyclinT1, 2 mM ATP (high ATP), IC50 (median)
Protocol: CDK9/CycT1-inhibitory activity of compounds of the present invention at a high ATP concentration after preincubation of enzyme and test compounds was quantified employing the CDK9/CycT1 TR-FRET assay as described in the following paragraphs. Recombinant full-length His-tagged human CDK9 and CycT1, expressed in insect cells and purified by Ni-NTA affinity chromatography, were purchased from Life Technologies (Cat. No PV4131). As substrate for the kinase reaction biotinylated peptide biotin-Ttds-[…] […]

{"columns": ["molecule", "system_under_test", "IC50"],
 "data": [
  ["CN1CC2CCC1CN2c1nc(NCc2nc3ccccc3[nH]2)n2ncc(Br)c2n1 (centres unmarked)", "CDK9/CycT1 (Homo sapiens, UniProt P50750)", "> 20 µM"],
  ["C[C@@H]1CN(c2nc(NCc3nc4cc(F)ccc4[nH]3)n3ncc(Br)c3n2)C[C@H](C)O1", "CDK9/CycT1 (Homo sapiens, UniProt P50750)", "5.47 µM"],
  ["COC(C)(C)COc1nc(NCc2nc3ccccc3[nH]2)n2ncc(Br)c2n1", "CDK9/CycT1 (Homo sapiens, UniProt P50750)", "> 20 µM"],
  ["CN1CCN(c2nc(NCc3nc4cc(C(F)(F)F)ccc4[nH]3)n3ncc(C4CC4)c3n2)CC1", "CDK9/CycT1 (Homo sapiens, UniProt P50750)", "> 20 µM"],
  ["CCc1cnn2c(NCc3nc4c(F)c(F)ccc4[nH]3)nc(N3CCN(C)CC3)nc12.O=CO", "CDK9/CycT1 (Homo sapiens, UniProt P50750)", "> 20 µM"],
  ["Brc1cnn2c(NCc3nc4ccccc4[nH]3)nc(OCC3CC3)nc12", "CDK9/CycT1 (Homo sapiens, UniProt P50750)", "> 20 µM"],
  ["Brc1cnn2c(NCc3nnc(-c4ccccn4)[nH]3)nc(N3CCOCC3)nc12", "CDK9/CycT1 (Homo sapiens, UniProt P50750)", "6.24 µM"],
  ["CC1CN(C)CCN1c1nc(NCc2nc3ccccc3[nH]2)n2ncc(Br)c2n1 (centres unmarked) [Example 156]", "CDK9/CycT1 (Homo sapiens, UniProt P50750)", "> 20 µM"],
  ["NC1CCN(c2nc(NCc3nc4ccccc4[nH]3)n3ncc(Br)c3n2)CC1", "CDK9/CycT1 (Homo sapiens, UniProt P50750)", "> 20 µM"],
  ["c1ccc2[nH]c(CNc3nc(N4CCOCC4)nc4c(C5CCCC5)cnn34)nc2c1", "CDK9/CycT1 (Homo sapiens, UniProt P50750)", "> 20 µM"],
  ["OC1CCCN(c2nc(NCc3nc4ccccc4[nH]3)n3ncc(Br)c3n2)C1 (racemic)", "CDK9/CycT1 (Homo sapiens, UniProt P50750)", "> 20 µM"],
  ["Fc1ccc2[nH]c(CNc3nc(N4CCOCC4)nc4c(C5CC5)cnn34)nc2c1F", "CDK9/CycT1 (Homo sapiens, UniProt P50750)", "> 20 µM"],
  ["Brc1cnn2c(NCc3nc4ccccc4[nH]3)nc(N3CCOCC3C3CC3)nc12 (centres unmarked)", "CDK9/CycT1 (Homo sapiens, UniProt P50750)", "> 20 µM"],
  ["Cc1cccc2[nH]c(CNc3nc(N4CCN(C)CC4)nc4c(Br)cnn34)nc12", "CDK9/CycT1 (Homo sapiens, UniProt P50750)", "> 20 µM"],
  ["Clc1cc2nc(CNc3nc(N4CCOCC4)nc4c(Br)cnn34)[nH]c2cc1Cl", "CDK9/CycT1 (Homo sapiens, UniProt P50750)", "13.8 µM"],
  ["Cc1cc2nc(CNc3nc(N4CCOCC4)nc4c(Br)cnn34)[nH]c2cc1C", "CDK9/CycT1 (Homo sapiens, UniProt P50750)", "12.6 µM"],
  ["Cc1ccnc2[nH]c(CNc3nc(N4CCOCC4)nc4c(Br)cnn34)nc12", "CDK9/CycT1 (Homo sapiens, UniProt P50750)", "9.22 µM"]
]}
